Would you mind telling me the reported inhibition at 5 µM of each entry?
Target: vanilloid receptor 1 (VR1/TRPV1) (Homo sapiens (Human), UniProt Q8NER1)
Sequence (Q8NER1 whole entry): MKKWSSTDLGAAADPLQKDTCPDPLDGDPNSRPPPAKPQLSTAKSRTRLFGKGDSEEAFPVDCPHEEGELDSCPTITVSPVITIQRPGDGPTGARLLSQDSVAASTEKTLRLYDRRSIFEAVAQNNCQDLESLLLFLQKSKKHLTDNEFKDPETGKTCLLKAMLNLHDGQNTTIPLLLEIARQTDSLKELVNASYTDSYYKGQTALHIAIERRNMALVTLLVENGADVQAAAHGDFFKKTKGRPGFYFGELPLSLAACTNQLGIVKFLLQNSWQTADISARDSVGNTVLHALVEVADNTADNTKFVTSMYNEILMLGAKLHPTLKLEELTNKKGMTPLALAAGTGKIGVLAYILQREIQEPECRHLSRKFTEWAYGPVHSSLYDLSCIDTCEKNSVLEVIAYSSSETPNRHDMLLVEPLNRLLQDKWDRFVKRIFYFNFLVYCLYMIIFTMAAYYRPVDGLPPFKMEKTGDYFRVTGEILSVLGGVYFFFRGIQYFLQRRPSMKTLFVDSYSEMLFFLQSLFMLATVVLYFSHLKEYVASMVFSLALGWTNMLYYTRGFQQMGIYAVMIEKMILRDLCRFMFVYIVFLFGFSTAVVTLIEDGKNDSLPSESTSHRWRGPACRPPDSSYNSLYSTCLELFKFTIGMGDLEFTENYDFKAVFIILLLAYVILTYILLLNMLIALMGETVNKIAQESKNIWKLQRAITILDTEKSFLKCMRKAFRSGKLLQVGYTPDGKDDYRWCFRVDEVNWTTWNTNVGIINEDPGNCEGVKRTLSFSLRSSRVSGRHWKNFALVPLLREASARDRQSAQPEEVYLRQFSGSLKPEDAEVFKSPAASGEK
Assay: FLIPR assay, Ca2+ influx in CHO K1 cells transfected with the human VR1 gene
Type: cell-based
Conditions: CHO-K1; @5 μM test compound; capsaicin 100 nM; read-out: inhibition (as a percentage), Cap
Counter-ions that a name gives are not always drawn.
A complete answer gives the number followed by the unit.

Answered cases to consult:
O=C(NCc1oc(C(F)(F)F)nc1-c1cccc(Cl)c1)Nc1ccc(COCCO)nc1 [EX-48, dihydrochloride]
31%
O=C(NCc1oc(C(F)(F)F)nc1-c1cccc(Cl)c1)Nc1ccc(CCO)nc1
46%
CS(=O)(=O)CCc1ccc(NC(=O)NCc2oc(C(F)(F)F)nc2-c2cccc(Cl)c2)cn1
41%

As a next step, examine the compound that follows.
For vanilloid receptor 1 (VR1/TRPV1) (Homo sapiens (Human), UniProt Q8NER1), give inhibition at 5 µM of the listed compound: CC(C)(C)c1nc(-c2cccc(Cl)c2)c(CNC(=O)Nc2ccc(COCCO)nc2)o1 [EX-46, dihydrochloride]
55%

====

Would you mind telling me the reported Ki of each entry?
Target: vanilloid receptor 1 (VR1/TRPV1) (Homo sapiens (Human))
Test: FLIPR assay, Ca2+ influx in CHO K1 cells transfected with the human VR1 gene
Assay type: cell-based
Conditions: displacement of capsaicin 100 nM; Ki from IC50 by Cheng-Prusoff equation; read-out: (f) Ki (human) [nM] Cap
Numbers only, in nM.

Answered cases to consult:
CC(C(=O)NCc1sc(C(F)(F)F)nc1-c1cccc(Cl)c1)c1ccc(CCO)c(F)c1 (centres unmarked) [EX-01]
1.4
O=C(NCc1oc(C(F)(F)F)nc1-c1cccc(Cl)c1)Nc1ccc(OCCO)nc1 [EX-42]
103
CC(C(=O)NCc1oc(C(F)(F)F)nc1-c1cccc(Cl)c1)c1ccc(NCCO)nc1 (single isomer, unassigned) [EX-18]
96.7
CC(C(=O)NCc1sc(C(F)(F)F)nc1-c1cccc(Cl)c1)c1ccc(CNS(N)(=O)=O)c(F)c1 (centres unmarked) [EX-24]
2.35
O=C(NCc1sc(C(F)(F)F)nc1-c1cccc(Cl)c1)Nc1ccc(CO)nc1 [EX-28]
19.4

Each compound below has a recorded value; state its Ki.
1. CC(C)(C)c1nc(-c2cccc(Cl)c2)c(CNC(=O)Nc2ccc(CO)nc2)o1 [EX-25]
2. CC(C(=O)NCc1sc(C(C)(C)C)nc1-c1cccc(Cl)c1)c1ccc(CNS(C)(=O)=O)c(F)c1 (centres unmarked) [EX-03]
3. CC(C(=O)NCc1sc(C(F)(F)F)nc1-c1cccc(Cl)c1)c1cnc(CCS(C)(=O)=O)c(F)c1 (centres unmarked) [EX-12]
4. CC(C(=O)NCc1oc(C(F)(F)F)nc1-c1cccc(Cl)c1)c1cnc(CO)c(F)c1 (centres unmarked) [EX-19]
5. CC(C)(C)c1nc(-c2cccc(F)c2)c(CNC(=O)Nc2ccc(CNS(C)(=O)=O)cc2)s1 [EX-39]
6. Cc1cccc(-c2nc(C(C)(C)C)sc2CNC(=O)C(C)c2ccc(CNS(C)(=O)=O)c(F)c2)c1 (centres unmarked) [EX-04]

73.1
0.6
1.1
13.8
17.6
1

====

Target: vanilloid receptor 1 (VR1/TRPV1) (Homo sapiens (Human), UniProt Q8NER1)
Assay: FLIPR assay, Ca2+ influx in CHO K1 cells transfected with the human VR1 gene
Format: cell-based
Conditions: displacement of capsaicin 100 nM; Ki from IC50 by Cheng-Prusoff equation; read-out: (f) Ki (human) [nM] Cap
Structures can show the parent of a compound that is named as a salt.
Would you mind telling me the reported Ki of each entry?
Answers are plain numbers, in nM.

O=C(NCc1sc(C(F)(F)F)nc1-c1cccc(Cl)c1)Nc1ccc(N2CC(O)C2)nc1
24.6

Each molecule below has a recorded value; state its Ki.
1. CC(C(=O)NCc1sc(C(F)(F)F)nc1-c1cccc(Cl)c1)c1cnc(CO)c(F)c1 (stereo not drawn)
2. CC(C(=O)NCc1sc(C(F)(F)F)nc1-c1cccc(Cl)c1)c1ccc(C2(O)COC2)cc1 (stereo not drawn)
3. CC(C)(C)c1nc(-c2cccc(Cl)c2)c(CNC(=O)Nc2ccc(CO)c(F)c2)s1
4. Cc1cccc(-c2nc(C(C)(C)C)sc2CNC(=O)Nc2ccc(CNS(C)(=O)=O)c(F)c2)c1
5. CC(C(=O)NCc1oc(C(F)(F)F)nc1-c1cccc(Cl)c1)c1cnc(CCS(C)(=O)=O)c(F)c1 (stereo not drawn)
6. O=C(NCc1oc(C(F)(F)F)nc1-c1cccc(Cl)c1)Nc1ccc(CO)nc1

[0.3, 8.8, 1.1, 2.3, 53.1, 62.5]

Each molecule below has a recorded value; state its Ki.
1. Cc1cccc(-c2nc(C(C)(C)C)sc2CNC(=O)Nc2ccc(CO)c(F)c2)c1
2. CC(C)(C)c1nc(-c2cccc(Cl)c2)c(CNC(=O)Nc2ccc(COCCO)nc2)s1 [EX-47, dihydrochloride]
3. CC(C(=O)NCc1oc(C(F)(F)F)nc1-c1cccc(Cl)c1)c1ccc(CNS(N)(=O)=O)c(F)c1 (stereo not drawn)

3.2
33.3
4.7

Each molecule below has a recorded value; state its Ki.
1. CS(=O)(=O)CCc1ccc(NC(=O)NCc2sc(C(F)(F)F)nc2-c2cccc(Cl)c2)cn1
2. CC(C)(C)c1nc(-c2cccc(Cl)c2)c(CNC(=O)Nc2ccc(OCCO)nc2)o1
3. CC(C(=O)NCc1oc(C(F)(F)F)nc1-c1cccc(Cl)c1)c1ccc(NCCO)nc1 (single isomer, unassigned) [EX-17]
4. CC(C)(C)c1nc(CNC(=O)Nc2ccc(CNS(N)(=O)=O)cc2)c(-c2cccc(Cl)c2)o1
5. CC(C)(C)c1nc(-c2cccc(Cl)c2)c(CNC(=O)Nc2ccc(OCCO)nc2)s1
6. CC(C)(C)c1nc(-c2cccc(Cl)c2)c(CNC(=O)Nc2ccc3c(c2)OCO3)s1
7. CC(C)(C)c1nc(-c2cccc(Cl)c2)c(CNC(=O)Nc2cccc3c2CCC3)s1
8. CC(C(=O)NCc1oc(C(F)(F)F)nc1-c1cccc(Cl)c1)c1ccc(CNS(N)(=O)=O)cc1 (stereo not drawn)

[48.8, 43.6, 0.7, 29.9, 27.5, 5.6, 2.9, 7.5]

Each molecule below has a recorded value; state its Ki.
1. CC(C)(C)c1nc(-c2cccc(Cl)c2)c(CNC(=O)Nc2ccc(CNS(C)(=O)=O)cc2)o1
2. CC(C)(C)c1nc(-c2cccc(Cl)c2)c(CNC(=O)Nc2ccc(CNS(C)(=O)=O)c(F)c2)s1
3. CC(C)(C)c1nc(-c2cccc(Cl)c2)c(CNC(=O)Nc2ccc3c(c2)OCCO3)s1
4. CC(C)(C)c1nc(-c2cccc(Cl)c2)c(CNC(=O)Nc2ccc(CCO)nc2)o1
5. CC(C)(C)c1nc(-c2cccc(Cl)c2)c(CNC(=O)Nc2ccc3c(c2)CCC3)s1
6. CC(C(=O)NCc1oc(C(F)(F)F)nc1-c1cccc(Cl)c1)c1ccc(NCCO)nc1 (stereo not drawn) [EX-13]

[52.6, 6.6, 5.9, 78.4, 12.3, 5.2]

Each molecule below has a recorded value; state its Ki.
1. O=C(NCc1sc(C(F)(F)F)nc1-c1cccc(Cl)c1)Nc1ccc(CCO)nc1
2. CC(C(=O)NCc1sc(C(F)(F)F)nc1-c1cccc(Cl)c1)c1ccc(NCCO)nc1 (single isomer, unassigned) [EX-15]
3. CC(C(=O)NCc1oc(C(F)(F)F)nc1-c1cccc(Cl)c1)c1ccc(C2(O)COC2)cc1 (stereo not drawn)

1: 30.2; 2: 0.4; 3: 73.8

Each molecule below has a recorded value; state its Ki.
1. CC(C(=O)NCc1sc(C(F)(F)F)nc1-c1cccc(Cl)c1)c1ccc(CNS(N)(=O)=O)cc1 (stereo not drawn)
2. O=C(NCc1sc(C(F)(F)F)nc1-c1cccc(Cl)c1)Nc1ccc(COCCO)nc1 [EX-49, dihydrochloride]
3. CC(C)(C)c1nc(-c2cccc(Cl)c2)c(CNC(=O)Nc2cccc3cnccc23)s1
4. CC(C(=O)NCc1sc(C(F)(F)F)nc1-c1cccc(Cl)c1)c1ccc(NCCO)nc1 (stereo not drawn) [EX-14]
5. CC(C(=O)NCc1oc(C(F)(F)F)nc1-c1cccc(Cl)c1)c1ccc(CCO)c(F)c1 (stereo not drawn)

[0.7, 35, 0.1, 0.7, 28.4]

Identify the reported Ki for the following entry. O=C(NCc1oc(C(F)(F)F)nc1-c1cccc(Cl)c1)Nc1ccc(N2CC(O)C2)nc1
60.8

====

Would you mind telling me the reported Ki of each entry?
Biological target: vanilloid receptor 1 (VR1/TRPV1) (Homo sapiens (Human), UniProt Q8NER1)
Test: FLIPR assay, Ca2+ influx in CHO K1 cells transfected with the human VR1 gene
Assay type: cell-based
Details: displacement of capsaicin 100 nM; Ki from IC50 by Cheng-Prusoff equation; read-out: (f) Ki (human) [nM] Cap
Give bare numbers, in nM.

CC(C)(C)c1nc(-c2cccc(Cl)c2)c(CNC(=O)Nc2ccc(CO)nc2)s1 [EX-26]
10.2
CC(C(=O)NCc1sc(C(F)(F)F)nc1-c1cccc(Cl)c1)c1ccc(NCCO)nc1 (single isomer, unassigned) [EX-16]
41.9

As a next step, examine the compound that follows.
Identify the reported Ki for the following entry. O=C(NCc1sc(C(F)(F)F)nc1-c1cccc(Cl)c1)Nc1ccc(OCCO)nc1 [EX-43]
29.8

Sourced from patent US9771359B1
